# system.tested: human IL-6 (human, UniProt P05231 30-212)
# Sequence (P05231 30-212 limits assumed): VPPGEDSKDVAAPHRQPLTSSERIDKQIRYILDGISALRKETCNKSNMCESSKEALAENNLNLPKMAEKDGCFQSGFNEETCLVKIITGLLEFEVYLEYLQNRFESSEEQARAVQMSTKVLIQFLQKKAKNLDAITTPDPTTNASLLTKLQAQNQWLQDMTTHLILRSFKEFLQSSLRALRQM
# experiment.summary: SPR (Biacore), supernatant antibody on Protein A chip, IL-6 flowed, 37 C
test.readout: pKd
The scale used: pKd is minus the common logarithm of the concentration in molar units.

What pKd value was documented for this binder, anti-IL-6 antibody, heavy chain S35V, G66D / light chain M32L, M50D, N52S, M88Q (antibody, human IgG1, V domains shown, Human IgG1) VH: EVQLVESGGGLVQPGGSLRLSCAASGFTFSPFAMVWVRQAPGKGLEWVAKISPGGSWTYYSDTVTDRFTFSLDTSKSTAYLQMNSLRAEDTAVYYCARQLWGYYALDIWGQGTLVTVSS VL: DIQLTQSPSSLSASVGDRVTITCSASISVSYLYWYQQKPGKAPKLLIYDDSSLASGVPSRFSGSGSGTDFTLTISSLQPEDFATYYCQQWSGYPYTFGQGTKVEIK ?
8.88

What pKd value was documented for this binder, anti-IL-6 antibody, heavy chain T65Y, G66D / light chain M32L, M50D, N52S, M88Q (antibody, human IgG1, V domains shown, Human IgG1) VH: EVQLVESGGGLVQPGGSLRLSCAASGFTFSPFAMSWVRQAPGKGLEWVAKISPGGSWTYYSDTVYDRFTFSLDTSKSTAYLQMNSLRAEDTAVYYCARQLWGYYALDIWGQGTLVTVSS VL: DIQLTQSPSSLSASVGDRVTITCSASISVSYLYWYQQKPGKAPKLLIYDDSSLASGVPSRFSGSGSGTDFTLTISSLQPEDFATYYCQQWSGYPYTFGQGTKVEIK ?
9.63

What pKd value was documented for this binder, anti-IL-6 antibody, heavy chain S35G, G66D / light chain M32L, M50D, N52S, M88Q (antibody, human IgG1, V domains shown, Human IgG1) VH: EVQLVESGGGLVQPGGSLRLSCAASGFTFSPFAMGWVRQAPGKGLEWVAKISPGGSWTYYSDTVTDRFTFSLDTSKSTAYLQMNSLRAEDTAVYYCARQLWGYYALDIWGQGTLVTVSS VL: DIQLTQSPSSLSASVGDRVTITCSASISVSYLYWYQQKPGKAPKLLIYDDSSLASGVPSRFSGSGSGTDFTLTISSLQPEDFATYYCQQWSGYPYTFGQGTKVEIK ?
9.22
